compound | melting point
CCCSc1sc(C(N)=O)c2c1-c1nc(-c3ccccc3)sc1CC2 | 203 to 204 °C
CC12CCCC=C1CCC1C2CCC2(C)C(OC3CCCCO3)CCC12 (configuration not stated) | 92 to 96 °C
CC(=O)OC1=CCC2C3CCC4CCC(OC(C)=O)CC4(C)C3CCC12C (configuration not stated) | 133 to 134 °C
CCCCCCOc1c(C=O)ccc2c1C=CC(C=O)(OCCCCCC)C2 (configuration not stated) | 50 to 52 °C
c1ccc(CSc2nc3nc(-c4ccccc4)cc(-c4ccccc4)n3n2)cc1 | 122 to 124 °C
C=CCCc1ccc(C=NN=Cc2ccc(C)cc2)cc1 | 82 °C
O=C1Nc2cc(CN3CCN(c4ccc(C(=O)N5CCCC5)cc4)CC3)cnc2N2CCC[C@@H]12 | 121 °C
O=C(O)CCCc1cc2nc(Cl)ccc2n1S(=O)(=O)c1ccc(-c2ccncc2)cc1 | 174 °C
CCOC(=O)C(C)OCc1cc2nc(C(F)(F)F)ccc2n1S(=O)(=O)c1ccc2ncsc2c1 (configuration not stated) | 96 °C
O=C(c1cccnc1)C(O)c1ccccc1Cl (configuration not stated) | 92 °C
CC=C1CCC2C3CCC4CC(O)C(OCC)CC4(C)C3C(N)CC12C (configuration not stated) | 65 to 70 °C
COC(=O)C(c1ccccc1)n1cncc1C=O (configuration not stated) | 106 to 109 °C
Cc1nc(CN2CCN(c3cccc(Br)c3)CC2)cs1 | 82 °C
CCCCCCCCCCCCSc1n[nH]c(-c2ccc(C(C)(C)C)cc2)n1 | 87 to 92 °C
CCCCCCC1=C(Br)C(CBr)(NCc2ccccc2)OC1=O (configuration not stated) | 72 to 75 °C
COc1c(N2CC[C@@H](O)[C@H](C)C2)c(F)c(N)c2c(=O)c(C(=O)O)cn(C3CC3)c12 (relative stereo) | 240 to 244 °C
O=C(CCC(F)(F)F)Oc1cc(=O)n(-c2ccccc2)c2ncccc12 | 193 to 195 °C
CN(C)C=CC(=O)c1cccc(N(C)C(=O)C2CC2)c1 | 120 to 122 °C
COC(=O)CCC(=O)c1ccccc1NC(=O)CCl | 102 °C
Oc1cccc(-c2cc(-c3ccc(-c4ccccc4)cc3)cc(-c3ccc4ccccc4c3)n2)c1 | 174 to 175 °C
COc1ccc(CC(=O)c2ccc(OC)c(OC)c2)cc1OC | 105 to 107 °C
CCOC(=O)Cc1nc(-c2ccccc2)oc1-c1ccoc1 | 84 to 85 °C
Cc1cccnc1Cn1nnc2ccccc21 | 175 to 177 °C
COCC1CN(C(=O)c2cc(OC)c(OC)c(OC)c2)CCN1C(=O)c1csc(-c2ccc(OC)c(OC)c2)n1 (configuration not stated) | 149 to 151 °C
Cc1cccc(-c2nc3cccnn3c2-c2ccnc(NC3CCCCC3)c2)c1 | 169 to 170 °C
CC1(C)C2CC[C@]1(C)C(=O)C(C(=O)Nc1ccc(C(F)(F)F)cc1)C2=O (some centres not stated) | 78 to 81 °C
CCOP(=O)(OCC)C(C)(C)NC(=O)c1cccc(NC(=O)c2cccc([N+](=O)[O-])c2)c1 | 120 to 121 °C

Origin of values: a melting point compilation (Tetko et al.; mined from patent text by program, amines drawn as free bases though some values may be those of a salt)
